system: HSSY-II complex spheroid growth, percent test/control; test: Anticancer human tumor HSSY-II cell line growth inhibition [Asc]; conditions: second compound 3.16 µM; first compound 0.00316 µM; active compounds read low;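 note: spheroids exposed to drug for 7 days before reading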

COMPOUND	MEASURED ON	viability, T/C, %
CCN1CCN(Cc2ccc(Nc3ncc(F)c(-c4cc(F)c5nc(C)n(C(C)C)c5c4)n3)nc2)CC1 + Cc1c(S(C)(=O)=O)c(-c2cc(F)cc(N3CCN(c4ccc(NS(=O)(=O)c5ccc(NC(CCN6CCC(C(=O)OCCCP(=O)(O)O)CC6)CSc6ccccc6)c(S(=O)(=O)C(F)(F)F)c5)cc4)CC3)c2)c(-c2ccc(Cl)cc2)n1C(C)C	HSSY-II complex spheroid growth, percent test/control	80.9
Cn1ncnc1[C@H]1c2n[nH]c(=O)c3cc(F)cc(c23)N[C@@H]1c1ccc(F)cc1 + Cc1c(S(C)(=O)=O)c(-c2cc(F)cc(N3CCN(c4ccc(NS(=O)(=O)c5ccc(NC(CCN6CCC(C(=O)OCCCP(=O)(O)O)CC6)CSc6ccccc6)c(S(=O)(=O)C(F)(F)F)c5)cc4)CC3)c2)c(-c2ccc(Cl)cc2)n1C(C)C	HSSY-II complex spheroid growth, percent test/control	73.6
NC1CCC(NC2CC2c2ccccc2)CC1 (stereo unspecified) + Cc1c(S(C)(=O)=O)c(-c2cc(F)cc(N3CCN(c4ccc(NS(=O)(=O)c5ccc(NC(CCN6CCC(C(=O)OCCCP(=O)(O)O)CC6)CSc6ccccc6)c(S(=O)(=O)C(F)(F)F)c5)cc4)CC3)c2)c(-c2ccc(Cl)cc2)n1C(C)C	HSSY-II complex spheroid growth, percent test/control	60.8
CNC(C)C(=O)NC1CN(S(=O)(=O)c2cccc(S(=O)(=O)N3CCC4CCC(C(=O)NC(c5ccccc5)c5ccccc5)N4C(=O)C(NC(=O)C(C)NC)C3)c2)CCC2CCC(C(=O)NC(c3ccccc3)c3ccccc3)N2C1=O (stereo unspecified) + Cc1c(S(C)(=O)=O)c(-c2cc(F)cc(N3CCN(c4ccc(NS(=O)(=O)c5ccc(NC(CCN6CCC(C(=O)OCCCP(=O)(O)O)CC6)CSc6ccccc6)c(S(=O)(=O)C(F)(F)F)c5)cc4)CC3)c2)c(-c2ccc(Cl)cc2)n1C(C)C	HSSY-II complex spheroid growth, percent test/control	93.2
COc1c(OCCCN2CCOCC2)ccc2c3n(c(=NC(=O)c4cnc(N)nc4)nc12)CCN3 + Cc1c(S(C)(=O)=O)c(-c2cc(F)cc(N3CCN(c4ccc(NS(=O)(=O)c5ccc(NC(CCN6CCC(C(=O)OCCCP(=O)(O)O)CC6)CSc6ccccc6)c(S(=O)(=O)C(F)(F)F)c5)cc4)CC3)c2)c(-c2ccc(Cl)cc2)n1C(C)C	HSSY-II complex spheroid growth, percent test/control	82.1
O=C(c1ccc(F)c(F)c1Nc1ccc(I)cc1F)N1CC(O)([C@@H]2CCCCN2)C1 + Cc1c(S(C)(=O)=O)c(-c2cc(F)cc(N3CCN(c4ccc(NS(=O)(=O)c5ccc(NC(CCN6CCC(C(=O)OCCCP(=O)(O)O)CC6)CSc6ccccc6)c(S(=O)(=O)C(F)(F)F)c5)cc4)CC3)c2)c(-c2ccc(Cl)cc2)n1C(C)C	HSSY-II complex spheroid growth, percent test/control	107

---

system: HSSY-II complex spheroid growth, percent test/control; assay: Anticancer human tumor HSSY-II cell line growth inhibition [Asc]; conditions: second compound 3.16 µM; first compound 0.01 µM; active compounds read low;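 note: spheroids exposed to drug for 7 days before reading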

MOLECULE	MEASURED ON	viability, T/C [%]
CNC(C)C(=O)NC1CN(S(=O)(=O)c2cccc(S(=O)(=O)N3CCC4CCC(C(=O)NC(c5ccccc5)c5ccccc5)N4C(=O)C(NC(=O)C(C)NC)C3)c2)CCC2CCC(C(=O)NC(c3ccccc3)c3ccccc3)N2C1=O (stereo not drawn) + Cc1c(S(C)(=O)=O)c(-c2cc(F)cc(N3CCN(c4ccc(NS(=O)(=O)c5ccc(NC(CCN6CCC(C(=O)OCCCP(=O)(O)O)CC6)CSc6ccccc6)c(S(=O)(=O)C(F)(F)F)c5)cc4)CC3)c2)c(-c2ccc(Cl)cc2)n1C(C)C	HSSY-II complex spheroid growth, percent test/control	94.2
O=C(c1ccc(F)c(F)c1Nc1ccc(I)cc1F)N1CC(O)([C@@H]2CCCCN2)C1 + Cc1c(S(C)(=O)=O)c(-c2cc(F)cc(N3CCN(c4ccc(NS(=O)(=O)c5ccc(NC(CCN6CCC(C(=O)OCCCP(=O)(O)O)CC6)CSc6ccccc6)c(S(=O)(=O)C(F)(F)F)c5)cc4)CC3)c2)c(-c2ccc(Cl)cc2)n1C(C)C	HSSY-II complex spheroid growth, percent test/control	101
CCN1CCN(Cc2ccc(Nc3ncc(F)c(-c4cc(F)c5nc(C)n(C(C)C)c5c4)n3)nc2)CC1 + Cc1c(S(C)(=O)=O)c(-c2cc(F)cc(N3CCN(c4ccc(NS(=O)(=O)c5ccc(NC(CCN6CCC(C(=O)OCCCP(=O)(O)O)CC6)CSc6ccccc6)c(S(=O)(=O)C(F)(F)F)c5)cc4)CC3)c2)c(-c2ccc(Cl)cc2)n1C(C)C	HSSY-II complex spheroid growth, percent test/control	91.8

---

system: HSSY-II complex spheroid growth, percent test/control; assay: Anticancer human tumor HSSY-II cell line growth inhibition [Asc]; conditions: second compound 3 µM; first compound 0.0316 µM; active compounds read low;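 note: spheroids exposed to drug for 7 days before reading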
Each entry below lists one item and its recorded viability, T/C value.

COMPOUND	viability, T/C, %
C=CC(=O)N1CCN(c2nc(=O)n(-c3c(C)ccnc3C(C)C)c3nc(-c4c(O)cccc4F)c(F)cc23)C(C)C1 (stereo unspecified) + CCN1C(C(=O)NC23CCC(C(=O)O)(CC2)CC3)C(c2cccc(Cl)c2F)C2(C(=O)Nc3cc(Cl)ccc32)C12CCCCC2	2.1
O=C(c1ccc(F)c(F)c1Nc1ccc(I)cc1F)N1CC(O)([C@@H]2CCCCN2)C1 + CCN1C(C(=O)NC23CCC(C(=O)O)(CC2)CC3)C(c2cccc(Cl)c2F)C2(C(=O)Nc3cc(Cl)ccc32)C12CCCCC2	2.09
NC1CCC(NC2CC2c2ccccc2)CC1 (stereo unspecified) + CCN1C(C(=O)NC23CCC(C(=O)O)(CC2)CC3)C(c2cccc(Cl)c2F)C2(C(=O)Nc3cc(Cl)ccc32)C12CCCCC2	1.43
COc1c(OCCCN2CCOCC2)ccc2c3n(c(=NC(=O)c4cnc(N)nc4)nc12)CCN3 + CCN1C(C(=O)NC23CCC(C(=O)O)(CC2)CC3)C(c2cccc(Cl)c2F)C2(C(=O)Nc3cc(Cl)ccc32)C12CCCCC2	0.78
Cn1ncnc1[C@H]1c2n[nH]c(=O)c3cc(F)cc(c23)N[C@@H]1c1ccc(F)cc1 + CCN1C(C(=O)NC23CCC(C(=O)O)(CC2)CC3)C(c2cccc(Cl)c2F)C2(C(=O)Nc3cc(Cl)ccc32)C12CCCCC2	1.88
O=C(c1cc(Cc2n[nH]c(=O)c3ccccc23)ccc1F)N1CCN(C(=O)C2CC2)CC1 + CCN1C(C(=O)NC23CCC(C(=O)O)(CC2)CC3)C(c2cccc(Cl)c2F)C2(C(=O)Nc3cc(Cl)ccc32)C12CCCCC2	3.25

---

tested on: HSSY-II complex spheroid growth, percent test/control; experiment: Anticancer human tumor HSSY-II cell line growth inhibition [Asc]; conditions: second compound 0.316 µM; first compound 1 µM; active compounds read low;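 note: spheroids exposed to drug for 7 days before reading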

COMPOUND	viability, T/C [%]
C=C(F)C(=O)N1CCN(c2nc(OCC3CCCN3C)nc3c2CCN(c2cccc4cccc(Cl)c24)C3)CC1CC#N (stereo not given) + Cc1c(S(C)(=O)=O)c(-c2cc(F)cc(N3CCN(c4ccc(NS(=O)(=O)c5ccc(NC(CCN6CCC(C(=O)OCCCP(=O)(O)O)CC6)CSc6ccccc6)c(S(=O)(=O)C(F)(F)F)c5)cc4)CC3)c2)c(-c2ccc(Cl)cc2)n1C(C)C	68
CCN1CCN(Cc2ccc(Nc3ncc(F)c(-c4cc(F)c5nc(C)n(C(C)C)c5c4)n3)nc2)CC1 + Cc1c(S(C)(=O)=O)c(-c2cc(F)cc(N3CCN(c4ccc(NS(=O)(=O)c5ccc(NC(CCN6CCC(C(=O)OCCCP(=O)(O)O)CC6)CSc6ccccc6)c(S(=O)(=O)C(F)(F)F)c5)cc4)CC3)c2)c(-c2ccc(Cl)cc2)n1C(C)C	20.7
C#Cc1c(F)ccc2cc(O)cc(-c3ncc4c(N5CC6CCC(C5)N6)nc(OCC56CCCN5CC(F)C6)nc4c3F)c12 (stereo not given) + Cc1c(S(C)(=O)=O)c(-c2cc(F)cc(N3CCN(c4ccc(NS(=O)(=O)c5ccc(NC(CCN6CCC(C(=O)OCCCP(=O)(O)O)CC6)CSc6ccccc6)c(S(=O)(=O)C(F)(F)F)c5)cc4)CC3)c2)c(-c2ccc(Cl)cc2)n1C(C)C	105
O=C(c1ccc(F)c(F)c1Nc1ccc(I)cc1F)N1CC(O)([C@@H]2CCCCN2)C1 + Cc1c(S(C)(=O)=O)c(-c2cc(F)cc(N3CCN(c4ccc(NS(=O)(=O)c5ccc(NC(CCN6CCC(C(=O)OCCCP(=O)(O)O)CC6)CSc6ccccc6)c(S(=O)(=O)C(F)(F)F)c5)cc4)CC3)c2)c(-c2ccc(Cl)cc2)n1C(C)C	22.9
C=CC(=O)N1CCN(c2nc(=O)n(-c3c(C)ccnc3C(C)C)c3nc(-c4c(O)cccc4F)c(F)cc23)C(C)C1 (stereo not given) + Cc1c(S(C)(=O)=O)c(-c2cc(F)cc(N3CCN(c4ccc(NS(=O)(=O)c5ccc(NC(CCN6CCC(C(=O)OCCCP(=O)(O)O)CC6)CSc6ccccc6)c(S(=O)(=O)C(F)(F)F)c5)cc4)CC3)c2)c(-c2ccc(Cl)cc2)n1C(C)C	99.9

Reference source: PubChem BioAssay AID1963444
